# System under test: CDK6/D3 (Homo sapiens, UniProt Q00534)
# Sequence (Q00534 whole entry): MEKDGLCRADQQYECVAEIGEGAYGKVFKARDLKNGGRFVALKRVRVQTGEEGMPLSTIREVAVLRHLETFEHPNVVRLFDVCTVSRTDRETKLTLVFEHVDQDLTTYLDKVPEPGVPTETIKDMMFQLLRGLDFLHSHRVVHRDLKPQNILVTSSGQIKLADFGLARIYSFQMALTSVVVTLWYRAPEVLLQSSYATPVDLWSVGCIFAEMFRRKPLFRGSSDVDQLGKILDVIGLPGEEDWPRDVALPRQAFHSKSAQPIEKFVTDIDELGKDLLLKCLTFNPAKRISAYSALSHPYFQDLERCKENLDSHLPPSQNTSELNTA
# Sequence (P30281 whole entry partner): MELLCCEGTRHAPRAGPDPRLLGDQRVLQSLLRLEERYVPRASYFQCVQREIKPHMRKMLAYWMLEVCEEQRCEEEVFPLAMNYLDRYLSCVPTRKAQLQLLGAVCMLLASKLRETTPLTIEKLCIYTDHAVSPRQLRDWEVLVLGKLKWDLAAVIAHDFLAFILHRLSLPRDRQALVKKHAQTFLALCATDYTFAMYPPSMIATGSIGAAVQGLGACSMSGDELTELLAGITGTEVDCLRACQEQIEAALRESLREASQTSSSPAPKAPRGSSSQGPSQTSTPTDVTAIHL
# Method: ADP Glo Kinase assay CDK6/D3
# Assay type: biochemical
# Conditions: CDK6D3; read-out: CDK inhibition, Ki (μM) CDK6D3
Readout label: Ki (µM)

Here's what some known entries look like.
Molecule | Endpoint unit | Ki
Cc1cnc(NC2CCC(N(C)C)CC2)nc1-c1cnc2ccc(Nc3cccnc3)cn12 (centres unmarked) | µM | 0.53
N[C@H]1CC[C@H](Nc2ncc(Cl)c(-c3cnc4ccc(-c5cccnc5)cn34)n2)CC1 | µM | 0.394
N[C@H]1CC[C@H](Nc2ncc(Cl)c(-c3cnc4ccc(Nc5cncnc5)cn34)n2)CC1 | µM | 0.034
COc1ccc(-c2ccc3ncc(-c4nc(N[C@H]5CC[C@H](N)CC5)ncc4Cl)n3c2)cn1 | µM | 1.01
Cc1cnc(N[C@H]2CC[C@H](N)CC2)nc1-c1cnc2ccc(Nc3cccnc3)cn12 | µM | 1.05

1. Cc1cnc(N[C@H]2CC[C@H](N)CC2)nc1-c1cnc2ccc(Nc3cncnc3)cn12
2. CNC1CCC(Nc2ncc(C)c(-c3cnc4ccc(Nc5cncnc5)cn34)n2)CC1 (centres unmarked)
Exercise: Smaller Ki value, 1 vs 2 ? # answer = label of selected item
Solution: 2

====

# System under test: CDKs and other kinases (Homo sapiens, UniProt P50613)
# Construct: other: CDK7H; residual activity (%) at 10 μM CDK7H; compound at 10 μM
# Sequence (P50613 whole entry): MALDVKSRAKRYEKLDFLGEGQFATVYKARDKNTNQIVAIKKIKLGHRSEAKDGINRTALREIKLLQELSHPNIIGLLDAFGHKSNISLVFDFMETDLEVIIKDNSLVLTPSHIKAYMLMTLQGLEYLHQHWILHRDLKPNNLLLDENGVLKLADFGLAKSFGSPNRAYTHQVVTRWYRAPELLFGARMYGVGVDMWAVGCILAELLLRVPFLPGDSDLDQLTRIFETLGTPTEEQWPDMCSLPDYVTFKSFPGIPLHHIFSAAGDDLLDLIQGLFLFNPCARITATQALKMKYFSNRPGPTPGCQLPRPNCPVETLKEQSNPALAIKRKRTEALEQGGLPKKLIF
# Method: Radiometric kinase assay (Eurofins Pharma Discovery or Reaction Biology Corporation Kinase Profiler)
# Assay type: biochemical
# Conditions: CDK7H; read-out: CDK inhibition, Ki (μM) CDK7H
Readout label: Ki (µM)

Here's what some known entries look like.
Molecule | Numeric result
Cc1cnc(N[C@H]2CC[C@H](N)CC2)nc1-c1cnc2ccc(-c3ccccc3)cn12 | 0.6
Cc1cnc(N[C@H]2CC[C@H](N3CCCC3)CC2)nc1-c1cnc2ccc(-c3ccccc3)cn12 | 0.597

1. Cc1cnc(N[C@H]2CC[C@H](N)CC2)nc1-c1cnc2ccc(C(F)(F)F)cn12
2. Cc1cnc(N[C@H]2CC[C@H](N)CC2)nc1-c1cnc2ccc(-c3c(C)noc3C)cn12
Exercise: So which one has the bigger Ki here, 1 or 2 ? # answer = label of selected item
Solution: 2

A. N[C@H]1CC[C@H](Nc2ncc(Cl)c(-c3cnc4ccc(-c5cncnc5)cn34)n2)CC1
B. N[C@H]1CC[C@H](Nc2ncc(F)c(-c3cnc4ccc(-c5ccccc5)cn34)n2)CC1
Exercise: So which one has the bigger Ki here, A or B ? # answer = label of selected item
Solution: A
(A: 0.58 µM, B: 0.075 µM)

1. N[C@H]1CC[C@H](Nc2ncc(Cl)c(-c3cnc4ccccn34)n2)CC1
2. N[C@H]1CC[C@H](Nc2ncc(Cl)c(-c3cnc4ccc(NCc5ccc(F)cc5)cn34)n2)CC1
3. N[C@H]1CC[C@H](Nc2ncc(F)c(-c3cnc4ccc(Nc5ccccc5)cn34)n2)CC1
4. Fc1cnc(N[C@H]2CC[C@H](N3CCCC3)CC2)nc1-c1cnc2ccc(-c3ccccc3)cn12
5. Fc1cnc(NC2CCN(CC3CCCC3)CC2)nc1-c1cnc2ccc(-c3ccccc3)cn12
Exercise: Ascending by Ki, please. Hello, could you send the labels back in the order asked? Thank you.
Solution: 3, 1, 4, 5, 2

A. Cc1cnc(N[C@H]2CC[C@H](N)CC2)nc1-c1cnc2ccc(-c3ccncc3)cn12
B. N[C@H]1CC[C@H](Nc2ncc(F)c(-c3cnc4ccc(F)cn34)n2)CC1
C. Cc1noc(C)c1-c1ccc2ncc(-c3nc(N[C@H]4CC[C@H](N)CC4)ncc3Cl)n2c1
D. Cc1cnc(N[C@H]2CC[C@H](N)CC2)nc1-c1cnc2ccc(Nc3cncc(F)c3)cn12
Exercise: Ascending by Ki, please. Hello, could you send the labels back in the order asked? Thank you.
Solution: B, C, A, D
(B: 0.034 µM, C: 0.58 µM, A: 1.18 µM, D: 3.25 µM)
